# Procedure Details: Growth inhibition of human UMRC2 cells after 96 hrs by sulforhodamine B assay
# Type: functional, cell-based
# Test Conditions: UMRC2, 96 h
Recorded pIC50 by entry
pIC50 field: float, defined as -log10 of concentration (mol/L).

Here is how some molecules turned out for pIC50.
COc1cc(OC)cc(N2CCN(C(=O)Nc3nc4cc(Cl)ccc4nc3OC)CC2)c1 | 7.19
COc1cc(OC)cc(N2CCN(C(=O)Nc3nc4cc(F)ccc4nc3OC)CC2)c1 | 7.89
COc1cc(OC)cc(N2CCN(C(=O)Nc3nc4c(C)cccc4nc3OC)CC2)c1 | 7.52
COc1cc(OC)cc(N2CCN(C(=O)Nc3nc4c(OC)cccc4nc3OC)CC2)c1 | 7.54

// next entry
q: Please report the recorded pIC50 for "COc1cc(OC)cc(N2CCN(C(=O)Nc3nc4cc(C)ccc4nc3OC)CC2)c1" .
a: 7.41
